molecular target: Desmoglein-3 (Homo sapiens); assay: inhibitors of anti-DSG3 scFv binding to DSG3, confirmation, biochemical, cherry pick 1, bead-based, flow cytometry (AID 588466); details: Protein G beads with DSG3, scFv-GFP binding, at 10 µM, hits give low values;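 note: 100% = 2% DMSO vehicle and 0% = excess soluble DSG3 blocking control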
The campaign covered roughly 2,100 compounds. About 30 (1%) were called active. A selection follows.
Hi there, I'd appreciate the recorded binding response (% of DMSO) for every entry that follows.
API: value field is a number in %; no unit string.

Q: What measured binding response (% of DMSO) goes with CN(c1ccc(C(=O)NC2CC3CCC2C3)cc1)S(C)(=O)=O (stereo not given) ?
A: 101

Q: Would you kindly share the measured binding response (% of DMSO) for "CNC(=O)CN1C(=O)NC(c2ccccc2)(c2ccccc2)C1=O" ?
A: 100

Q: // lookup binding response (% of DMSO) for "COc1ccccc1CN(C)C[C@@H]1OCc2cnnn2CCCC(=O)N([C@@H](C)CO)C[C@H]1C"
A: 96.2

Q: Quick check: binding response (% of DMSO) of COCC(C)n1c(C)cc(C(=O)COC(=O)c2nn(C)c(=O)c3ccccc23)c1C (stereo not given) ?
A: 98.2

Q: Which value of binding response (% of DMSO) has been reported for "CCN(CC)CC(=O)NN=C(c1ccccc1)c1ccccc1" in the records?
A: 100

====

Would you mind telling me the reported binding response (% of DMSO) of each entry?
molecular target: Desmoglein-3 (Homo sapiens); test: inhibitors of anti-DSG3 scFv binding to DSG3, confirmation, biochemical, cherry pick 1, bead-based, flow cytometry (AID 588466); settings: Protein G beads with DSG3, scFv-GFP binding, at 10 µM, hits give low values;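 note: 100% = 2% DMSO vehicle and 0% = excess soluble DSG3 blocking control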
The whole screen tested about 2,100 compounds, of which about 30 (1%) were called active. Not all results are given here.
Report the figure in % without appending any unit label.

Q: binding response (% of DMSO) for "CCSc1nnc(NC(=O)CSc2nnc(CNC(=O)c3ccc(OC)cc3)o2)s1" ?
A: 102

Q: Fill in the blank: the reported binding response (% of DMSO) of "O=[N+]([O-])c1ccc(OCc2cnc(Cl)s2)c([N+](=O)[O-])c1" is ____.
A: 107

Q: // lookup binding response (% of DMSO) for "COc1ccc(-c2csc(NC(=O)c3cc(C)on3)c2C#N)cc1OC"
A: 97.8

Q: Which binding response (% of DMSO) value is on record for "CN1CCN(Cc2nc3ccccc3c(=O)n2Cc2nc(-c3ccc([N+](=O)[O-])cc3)cs2)CC1" ?
A: 103

Q: Look up binding response (% of DMSO) for this molecule: "CSc1nc2ccc(NC(=O)c3cccs3)cc2s1"
A: 102

Q: Need binding response (% of DMSO), item COc1ccc(C2=Nn3c(nnc3-c3ccccc3Cl)SC2)cc1OC1CCOC1 (stereo not given)
A: 91.3

Q: What value of binding response (% of DMSO) has been recorded for this entry: "COc1cccc(C(=O)NCc2ccc3c(c2)cc(C)n3C)c1"
A: 109

Q: May I ask what binding response (% of DMSO) has been recorded for "COc1ccc(Br)c(C(=O)Nc2cccc(S(=O)(=O)N3CCOCC3)c2)c1" ?
A: 98.5

Q: So what does the record say about binding response (% of DMSO) for "Cc1ccc(NS(=O)(=O)c2c(C)[nH]c(C)c2C(=O)N2CCCCC2)c(Br)c1" ?
A: 101

Q: Any idea what its binding response (% of DMSO) is? The molecule is "CC(=O)Nc1nnc(CCS(=O)(=O)c2ccc(C)c(C)c2)s1"
A: 104

Sourced from PubChem BioAssay AID588466
